Subject Of Test: Cyclin-dependent kinase 5/CDK5 activator 1 (Homo sapiens)
Protocol: Inhibition of human recombinant CDK5/p25 using histone H1 as substrate and [gamma-33P]-ATP after 30 mins by scintillation counting
Listed here: items and their measured IC50.
Respond with the bare value in µM.

compound="O=C(Nc1cccc2c1C1CCCCN1C2=O)Nc1nc(Cl)c(Cl)c(Cl)c1Cl (stereo not given)" units_label=µM readout_value=10

Continue with the next compound.
State the recorded IC50 for this entry: O=C(Nc1cc(O)c2ccccc2n1)Nc1cccc2c1C1CCCCN1C2=O (stereo not given)
10

###

Subject Of Test: Dual specificity tyrosine-phosphorylation-regulated kinase 1A (Homo sapiens, UniProt Q13627)
Protocol: Inhibition of human recombinant GST-fused DYRK1A expressed in Escherichia coli using KKISGRLSPIMTEQ as substrate and [gamma-33P]-ATP after 30 mins by scintillation counting
Entries and their IC50 values follow.

Here's what some known entries look like.
compound="O=C(Nc1ccccc1)Nc1cccc2c1C1CCCCN1C2=O (configuration not stated)" readout_value="> 10 µM"
compound="O=C(Nc1nc2ccccc2s1)Nc1cccc2c1C1CCCCN1C2=O (configuration not stated)" readout_value="> 10 µM"
compound="O=C(Nc1cc(Br)ccn1)Nc1cccc2c1C1CCCCN1C2=O (configuration not stated)" readout_value="7.6 µM"
compound="O=C(Nc1ccc(-c2ccccc2)cn1)Nc1cccc2c1C1CCCCN1C2=O (configuration not stated)" readout_value="> 10 µM"
compound="O=C(Nc1cc(O)c2ccccc2n1)Nc1cccc2c1C1CCCCN1C2=O (configuration not stated)" readout_value="5.6 µM"
compound="O=C(Nc1cc2ccccc2cn1)Nc1cccc2c1C1CCCCN1C2=O (configuration not stated)" readout_value="> 10 µM"

IC50 for O=C(Nc1cccc2c1C1CCCCN1C2=O)Nc1nc(Cl)c(Cl)c(Cl)c1Cl (configuration not stated) ?
> 10 µM

###

Subject Of Test: Cyclin-dependent kinase 5/CDK5 activator 1 (Homo sapiens, UniProt Q00535)
Sequence (Q00535 whole entry): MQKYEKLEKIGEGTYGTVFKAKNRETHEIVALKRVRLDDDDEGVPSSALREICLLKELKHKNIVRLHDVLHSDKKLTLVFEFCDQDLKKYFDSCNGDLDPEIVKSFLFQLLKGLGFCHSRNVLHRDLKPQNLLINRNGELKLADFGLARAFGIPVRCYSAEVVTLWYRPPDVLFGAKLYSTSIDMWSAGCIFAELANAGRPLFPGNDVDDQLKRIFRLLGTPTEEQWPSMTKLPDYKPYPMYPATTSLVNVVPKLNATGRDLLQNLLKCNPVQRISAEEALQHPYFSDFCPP
Sequence (Q15078 whole entry, further chain): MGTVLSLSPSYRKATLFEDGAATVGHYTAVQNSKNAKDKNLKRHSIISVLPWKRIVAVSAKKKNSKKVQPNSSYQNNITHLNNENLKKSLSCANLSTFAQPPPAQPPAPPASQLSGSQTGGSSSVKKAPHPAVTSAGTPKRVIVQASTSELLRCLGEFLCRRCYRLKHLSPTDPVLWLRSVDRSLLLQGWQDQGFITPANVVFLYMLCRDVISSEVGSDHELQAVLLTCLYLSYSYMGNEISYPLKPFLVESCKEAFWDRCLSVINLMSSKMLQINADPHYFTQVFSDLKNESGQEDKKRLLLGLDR
Protocol: Inhibition of human recombinant CDK5/p25 using histone H1 as substrate and [gamma-33P]-ATP after 30 mins by scintillation counting
Experimental Readout: IC50 (nM)
Form entry: value (nM) — number only.

compound="O=C(Nc1ccc(-c2ccccc2)cn1)Nc1cccc2c1C1CCCCN1C2=O (stereo not drawn)" experimental_readout=IC50 readout_value=4000

Field request: IC50 | item: O=C(Nc1ccc2cccc(O)c2n1)Nc1cccc2c1C1CCCCN1C2=O (stereo not drawn)
700

Do the same for O=C(Nc1cccc2c1C1CCCCN1C2=O)Nc1ncccc1O (stereo not drawn) please
37

What do we get for O=C(Nc1cc(Br)ccn1)Nc1cccc2c1C1CCCCN1C2=O (stereo not drawn) ?
25

Field entry: O=C(Nc1cccc2c1C1CCCCN1C2=O)Nc1ncc(F)cc1F (stereo not drawn)
260

###

Measured IC50, listed per entry.
Subject Of Test: Dual specificity tyrosine-phosphorylation-regulated kinase 1A (Homo sapiens)
Protocol: Inhibition of human recombinant GST-fused DYRK1A expressed in Escherichia coli using KKISGRLSPIMTEQ as substrate and [gamma-33P]-ATP after 30 mins by scintillation counting

Could you tell me which IC50 is on file for COc1cccnc1NC(=O)Nc1cccc2c1C1CCCCN1C2=O (stereo not given) ?
8.1 µM

Try O=C(Nc1cccc2c1C1CCCCN1C2=O)Nc1ncc(F)cc1F (stereo not given) next.
> 10 µM

And O=C(Nc1ccncn1)Nc1cccc2c1C1CCCCN1C2=O (stereo not given) ?
> 10 µM

Note, next up: O=C(Nc1cccc2c1C1CCCCN1C2=O)NC1CCCCC1 (stereo not given)
> 10 µM

O=C(Nc1ccc(O)cn1)Nc1cccc2c1C1CCCCN1C2=O (stereo not given) , same question.
> 10 µM

###

molecules and their reported IC50
Subject Of Test: Cyclin-dependent kinase 5/CDK5 activator 1 (Homo sapiens, UniProt Q00535)
Protocol: Inhibition of human recombinant CDK5/p25 using histone H1 as substrate and [gamma-33P]-ATP after 30 mins by scintillation counting

Worked cases, IC50 given:
molecule="O=C(Nc1ccccc1)Nc1cccc2c1C1CCCCN1C2=O (stereo not drawn)" readout_value="> 10 µM"
molecule="O=C(Nc1cccc2c1C1CCCCN1C2=O)NC1CCCCC1 (stereo not drawn)" readout_value="> 10 µM"

So what's the measured IC50 for this one? O=C(Nc1cccc(N2CCCCC2)n1)Nc1cccc2c1C1CCCCN1C2=O (stereo not drawn)
> 10 µM
